The origin of these recorded values is patent US6838414B2.

Tested on: Alopecurus
Experiment: Post-emergence test/greenhouse
Type: in vivo
Conditions: application rate 60 g of ai./ha, rated after three weeks vs untreated control
readout-label: degree of damage to the plants, Alopecurus (%)
Please give a number only; it is taken to be in %.

Illustrative cases are given below, each with its answer.
test-smiles: CCCOc1cccc(C)c1S(=O)(=O)NC(=O)Nc1nc(OC)nc(OC)n1
measured-result: 95
--
test-smiles: CCOc1cccc(C)c1S(=O)(=O)NC(=O)Nc1nc(OC)cc(OC)n1
measured-result: 90
--
test-smiles: CCOc1cccc(C)c1S(=O)(=O)NC(=O)Nc1nc(C)nc(OC)n1
measured-result: 70
--
test-smiles: COc1cc(Cl)nc(NC(=O)NS(=O)(=O)c2c(OC)cccc2C(F)(F)F)n1
measured-result: 70
--
test-smiles: CCOc1cccc(C)c1S(=O)(=O)NC(=O)Nc1nc(C)cc(OC)n1
measured-result: 95

input: Fill in the blank: the reported degree of damage to the plants, Alopecurus of COc1nc(C)nc(NC(=O)NS(=O)(=O)c2c(C)cccc2OC(F)F)n1 is ____.
output: 80

input: Note, next up: CCOc1cccc(C)c1S(=O)(=O)NC(=O)Nc1nc(OC)nc(OC)n1
output: 80

input: Please do the same for CCOc1cccc(C(C)C)c1S(=O)(=O)NC(=O)Nc1nc(OC)nc(OC)n1 as well.
output: 80
